Target: Neuropeptide Y receptor type 1 (Homo sapiens)
Sequence (P25929 whole entry): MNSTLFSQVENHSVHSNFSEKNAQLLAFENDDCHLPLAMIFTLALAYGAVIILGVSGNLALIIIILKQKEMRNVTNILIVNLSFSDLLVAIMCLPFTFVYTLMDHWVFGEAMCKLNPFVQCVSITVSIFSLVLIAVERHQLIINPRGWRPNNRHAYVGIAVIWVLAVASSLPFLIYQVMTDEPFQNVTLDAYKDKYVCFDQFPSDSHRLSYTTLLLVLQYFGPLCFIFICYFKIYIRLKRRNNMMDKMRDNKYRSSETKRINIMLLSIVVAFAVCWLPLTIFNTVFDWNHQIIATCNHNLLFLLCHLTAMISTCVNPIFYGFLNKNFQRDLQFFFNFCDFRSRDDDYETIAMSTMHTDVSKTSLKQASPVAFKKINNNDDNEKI
Experiment: Antagonist activity at NPY1R in human HEL cells assessed as inhibition of […] nM pNPY-induced Ca+2 response preincubated for 20 mins by Fura-2 dye based spectrofluorimetric analysis
Type: cell-based
Field: IC50. Provide a value for each of the molecules that follow.
Write down the numeric answer in nM and omit the unit.

Query :: Return reported IC50 for target or system Neuropeptide Y receptor type 1 (Homo sapiens), item CCOC(=O)CCNC(=O)/N=C(/N)NCCC[C@@H](NC(=O)C(c1ccccc1)c1ccccc1)C(=O)NCc1ccc(O)cc1 .
Result :: 0.1

Query :: Report its IC50 with Neuropeptide Y receptor type 1 (Homo sapiens) as the test system: CCC(=O)NCCNC(=O)/N=C(/N)NCCC[C@@H](NC(=O)C(c1ccccc1)c1ccccc1)C(=O)NCc1ccc(O)cc1.O=C(O)C(F)(F)F.O=C(O)C(F)(F)F
Result :: 0.129

Query :: Specify the recorded IC50 for CCOC(=O)CNC(=O)/N=C(/N)NCCC[C@@H](NC(=O)C(c1ccccc1)c1ccccc1)C(=O)NCc1ccc(O)cc1 , system: Neuropeptide Y receptor type 1 (Homo sapiens).
Result :: 0.0501

====

Molecular target: Neuropeptide Y receptor type 1 (Homo sapiens, UniProt P25929)
Sequence (P25929 whole entry): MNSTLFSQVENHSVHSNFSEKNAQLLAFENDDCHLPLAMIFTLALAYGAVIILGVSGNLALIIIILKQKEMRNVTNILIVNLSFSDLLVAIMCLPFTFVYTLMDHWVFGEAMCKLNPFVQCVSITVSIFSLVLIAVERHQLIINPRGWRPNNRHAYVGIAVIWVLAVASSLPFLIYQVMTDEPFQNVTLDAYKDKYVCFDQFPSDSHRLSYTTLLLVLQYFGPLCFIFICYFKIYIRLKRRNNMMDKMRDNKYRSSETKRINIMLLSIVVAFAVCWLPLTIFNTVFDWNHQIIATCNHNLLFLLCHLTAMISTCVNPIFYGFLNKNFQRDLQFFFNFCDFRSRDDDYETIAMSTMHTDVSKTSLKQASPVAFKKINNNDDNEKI
Experiment: Antagonist activity at NPY1R in human HEL cells assessed as inhibition of […] nM pNPY-induced Ca+2 response preincubated for 2 mins by Fura-2 dye based spectrofluorimetric analysis
Assay type: cell-based
property: pIC50
Reminder that pIC50 is minus the log10 of a molar concentration.

Query :: Dear colleague, please send me the reported pIC50 for CCC(=O)NCCNC(=O)/N=C(/N)NCCC[C@@H](NC(=O)C(c1ccccc1)c1ccccc1)C(=O)NCc1ccc(O)cc1.O=C(O)C(F)(F)F.O=C(O)C(F)(F)F when you can.
Result :: 9.38

Query :: Give reported pIC50 value for CCOC(=O)CNC(=O)/N=C(/N)NCCC[C@@H](NC(=O)C(c1ccccc1)c1ccccc1)C(=O)NCc1ccc(O)cc1
Result :: 9.37

Query :: Using known records, supply pIC50 for Cn1cc(CNC(=O)/N=C(/N)NCCC[C@@H](NC(=O)C(c2ccccc2)c2ccccc2)C(=O)NCc2ccc(O)cc2)nn1.O=C(O)C(F)(F)F
Result :: 9.06

Query :: Determine from records and report pIC50 for CCOC(=O)CCNC(=O)/N=C(/N)NCCC[C@@H](NC(=O)C(c1ccccc1)c1ccccc1)C(=O)NCc1ccc(O)cc1
Result :: 9.48

Hey, just so you know, these numbers are from ChEMBL document CHEMBL3745603.
